molecular target: Histamine H3 receptor (Homo sapiens)
test-readout: IC50

Ask: Give Histamine H3 receptor (Homo sapiens) IC50 for CN(C)CC(c1ccc(O)cc1)C1(O)CCCCC1 (stereo unspecified)
Reply: > 10 µM

====

target: Cannabinoid receptor 2 (Homo sapiens, UniProt P34972)
Sequence (P34972 whole entry): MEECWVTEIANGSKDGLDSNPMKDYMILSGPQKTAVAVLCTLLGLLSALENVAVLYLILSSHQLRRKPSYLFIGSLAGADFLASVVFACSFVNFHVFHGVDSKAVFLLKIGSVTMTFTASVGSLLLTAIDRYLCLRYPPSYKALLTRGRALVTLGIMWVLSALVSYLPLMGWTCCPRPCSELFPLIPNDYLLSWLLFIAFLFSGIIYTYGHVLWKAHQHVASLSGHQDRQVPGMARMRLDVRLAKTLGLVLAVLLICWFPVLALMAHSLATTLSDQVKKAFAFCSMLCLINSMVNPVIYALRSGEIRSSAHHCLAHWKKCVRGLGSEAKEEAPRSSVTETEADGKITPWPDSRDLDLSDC
pIC50: −log10 of the molar value.
test-readout: pIC50

Ask: Please look up its pIC50: CN(C)CC(c1ccc(O)cc1)C1(O)CCCCC1 (stereo unspecified)
Reply: < 5.00

====

target: UniProtKB P35367
Sequence (P35367 whole entry, looked up): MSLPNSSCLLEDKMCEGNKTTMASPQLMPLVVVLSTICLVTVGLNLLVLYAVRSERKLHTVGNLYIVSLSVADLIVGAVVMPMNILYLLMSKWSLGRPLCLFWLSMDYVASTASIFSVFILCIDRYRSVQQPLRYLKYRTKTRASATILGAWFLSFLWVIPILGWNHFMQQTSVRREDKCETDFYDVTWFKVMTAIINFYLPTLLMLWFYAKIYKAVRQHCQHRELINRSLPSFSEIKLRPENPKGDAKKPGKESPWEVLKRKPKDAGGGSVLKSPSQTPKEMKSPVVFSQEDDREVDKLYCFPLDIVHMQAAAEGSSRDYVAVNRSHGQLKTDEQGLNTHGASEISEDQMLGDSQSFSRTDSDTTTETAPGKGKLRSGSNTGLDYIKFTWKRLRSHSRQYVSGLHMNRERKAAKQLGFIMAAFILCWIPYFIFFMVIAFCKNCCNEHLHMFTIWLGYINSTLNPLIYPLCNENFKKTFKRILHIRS
pIC50: −log10 of the molar value.
test-readout: pIC50

Ask: Give UniProtKB P35367 pIC50 for CN(C)CC(c1ccc(O)cc1)C1(O)CCCCC1 (stereo unspecified) [CAS_386750-22-7]
Reply: < 5.00
